- Method: In vitro metabolic stability in human liver microsomes
- Format: in vitro ADME
- Assay context: Table S5
- Experimental: Isolated mouse (BD Gentest, Bedford, MA) and human liver microsomes (XenoTech, Kansas City, KS) ([Plant, 2004]) were added at a final concentration of 0.25 mg/ml to a solution containing 40 mM dibasic potassium phosphate and 10 mM monobasic potassium phosphate. Stock solutions of compounds at 5 mM were prepared in 100% DMSO. A 50:50 quenching solution of acetonitrile (ACN) and methanol (MeOH) was prepared. An NADPH solution was prepared at 10 mM. […]
Result type: CLint (L/h/kg) Human

Here are 2 compounds together with their reported answers.
| Smiles code | Result type | Observed |
| --- | --- | --- |
| O=C(COc1ccccc1F)NCCc1nc2ccccc2[nH]1 | CLint (L/h/kg) Human | 7.03 |
| O=C(CSc1ccccc1)NCCc1nc2ccccc2[nH]1 | CLint (L/h/kg) Human | 9.07 |

a: CC(=O)NCCc1nc2ccccc2n1CCOc1ccccc1Br
b: O=C(COc1ccc2ccccc2c1)NCCc1nc2ccccc2o1
c: CC(=O)Nc1ccccc1OCC(=O)NCCc1nc2ccccc2[nH]1
Problem: Hello, I need these entries ordered by CLint (L/h/kg) Human, highest reading first. Thanks! Give the labels in the order specified.
Result: b, a, c

###

// reported C0 for each item listed
- Method: In vivo pharmacokinetics in male CD1 mice
- Parameters: species or system mouse
- Assay context: male, CD1, mouse, plasma, 0.5 mg/kg; Table S6; IV, mice
Only the number, expressed in ng/mL, is required.

| Molecule | C0 [ng/mL] |
| --- | --- |
| CC(=O)Nc1ccc(OCC(=O)NCCc2nc3ccccc3[nH]2)cc1 | 1040 |
| O=C(COc1ccc2ccc(O)cc2c1)NCCc1nc2ccccc2[nH]1 | 400 |
| O=C(Cn1ccnc1[N+](=O)[O-])NCc1ccccc1 [BZ, benznidazole, reference compound] | 961 |
| O=C(COc1cccc([N+](=O)[O-])c1)NCCc1nc2ccccc2[nH]1 | 925 |
| NC(=O)Cn1c(CCNC(=O)COc2ccccc2)nc2ccccc21 | 1930 |

Problem: Quick one: C0 for CC(=O)Nc1cccc(OCC(=O)NCCc2nc3ccccc3[nH]2)c1 ?
Result: 12000

Problem: Quick one: C0 for O=C(COc1ccc2cc(O)ccc2c1)NCCc1nc2ccccc2[nH]1 ?
Result: 660

Problem: Quick one: C0 for O=C(COc1ccccc1)NCCc1nc2ccccc2[nH]1 ?
Result: 988

###

// reported IC50 for each item listed
- System: cruzain (Trypanosoma cruzi)
- Construct: made in house; host or cells: Escherichia coli (strain M15)
- Sequence (P25779 123-337 limits assumed): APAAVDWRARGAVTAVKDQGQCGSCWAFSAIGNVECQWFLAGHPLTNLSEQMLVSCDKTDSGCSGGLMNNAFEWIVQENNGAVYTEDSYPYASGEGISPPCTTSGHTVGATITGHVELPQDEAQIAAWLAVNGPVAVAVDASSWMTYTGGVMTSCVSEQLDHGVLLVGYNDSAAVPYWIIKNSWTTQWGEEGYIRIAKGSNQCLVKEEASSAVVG
- Method: Cruzain enzyme inhibition assay (cleavage of fluorogenic substrate Z-FR-AMC)
- Assay type: biochemical
- Assay context: Table S2; substrate 10 µM; read-out: IC50 (µM) cruzain at [S] 10 µM
Only the number, expressed in µM, is required.

Here are 3 compounds together with their reported answers.
| Smiles code | Measure unit | IC50 |
| --- | --- | --- |
| C=CCCn1c(CCNC(=O)COc2ccccc2)nc2ccccc21 | µM | 14.7 |
| O=C(COc1ccccc1)NCCc1nc2ccccc2n1CCOc1ccccc1 | µM | 1 |
| O=C(COc1ccccc1)NCCc1nc2ccccc2n1CCCOc1ccccc1 | µM | 2.2 |

Let's switch to this compound now.
Problem: Quick one: IC50 for O=C(COc1ccccc1)NCCc1nc2ccccc2n1Cc1ccccc1 ?
Result: 1.9

Where do these numbers come from? They come from paper PMC8767159.
